Attribution: ChEMBL document CHEMBL1147867

# Tested on: A549
# test summary: Anticancer activity against human A549 cells at 50 ug/ml after 72 hrs
# Format: functional
# assay conditions: A549, 72 h
For each record, write down the corresponding inhibition at 50 µg/mL.
Your answer is read as %, so omit the unit and give the number.

Query: inhibition at 50 µg/mL; subject: Cc1ccc(N2CCn3c2n[nH]c(=O)c3=O)cc1 31

Quick check: inhibition at 50 µg/mL of COc1ccccc1N1CCn2c1n[nH]c(=O)c2=O ? 39

// lookup inhibition at 50 µg/mL for Cc1cccc(N2CCn3c2n[nH]c(=O)c3=O)c1C 0

Quick one: inhibition at 50 µg/mL for N=c1c(=O)[nH]nc2n1CCN2c1ccccc1 ? 38

Reported inhibition at 50 µg/mL for N=c1c(=O)[nH]nc2n1CCN2c1cccc(Cl)c1 : what is it? 50

###

# Tested on: T47D
# test summary: Cytotoxicity against human T47D cells at 50 ug/ml after 72 hrs
# Type: functional
Assign true (1) to entries whose inhibition at 50 µg/mL meets or exceeds 20%; assign false (0) to the rest.

Test whether the compound COc1ccc(N2CCN/C2=N\N)cc1 records inhibition at 50 µg/mL of 20% or higher. true (1)

Does COc1ccc(N2CCn3c2n[nH]c(=O)c3=O)cc1 have a reported inhibition at 50 µg/mL of at least 20%? true (1)

Exam item: decide whether the reported inhibition at 50 µg/mL for N/N=C1\NCCN1c1ccccc1 is at least 20%. false (0)

Evaluate Cc1ccccc1N1CCn2c1n[nH]c(=O)c2=O : inhibition at 50 µg/mL at minimum 20%? false (0)

For this compound, is measured inhibition at 50 µg/mL 20% or higher? N/N=C1\NCCN1c1ccccc1Cl true (1)

Identify whether the reported inhibition at 50 µg/mL of the following compound is 20% or greater: O=c1[nH]nc2n(c1=O)CCN2c1ccc(Cl)cc1 false (0)

Hi team, for Cc1ccc(N2CCn3c2n[nH]c(=O)c3=O)cc1 , is the recorded inhibition at 50 µg/mL at or above 20%? true (1)

Determine whether measured inhibition at 50 µg/mL meets or exceeds 20% for COc1ccccc1N1CCn2c1n[nH]c(=O)c2=O false (0)

Given the entry N/N=C1\NCCN1c1cccc(Cl)c1 , answer whether its inhibition at 50 µg/mL meets or surpasses 20%. false (0)

Hi, just wondering whether Cc1cccc(N2CCN/C2=N\N)c1C shows inhibition at 50 µg/mL of 20% or higher. true (1)

Answer whether inhibition at 50 µg/mL of N=c1c(=O)[nH]nc2n1CCN2c1cccc(Cl)c1 is greater than or equal to 20%. true (1)

Textbook exercise: given the entry N=c1c(=O)[nH]nc2n1CCN2c1ccccc1 , state whether its inhibition at 50 µg/mL is greater than or equal to 20%. false (0)

###

# test summary: Cell viability in HSF cells at 1 uM after 24 hrs by MTT assay
# Format: cell-based, Fibroblast
# assay conditions: human, read-out: Activity
Kindly state viability at 24 h, 1 µM for each of the entries shown.
// units = %; emit number, no label

What value of viability at 24 h, 1 µM has been recorded for this entry: O=c1[nH]nc2n(c1=O)CCN2c1cccc(Cl)c1 95

Which value of viability at 24 h, 1 µM has been reported for Cc1ccccc1N1CCn2c1n[nH]c(=O)c2=O in the records? 104

Given COc1ccccc1N1CCn2c1n[nH]c(=O)c2=O , state its recorded viability at 24 h, 1 µM. 103

Which viability at 24 h, 1 µM value is on record for N=c1c(=O)[nH]nc2n1CCN2c1ccc(Cl)cc1 ? 98

Bench note: what viability at 24 h, 1 µM did COc1ccc(N2CCn3c2n[nH]c(=O)c3=O)cc1 show? 94

Using the record for O=c1[nH]nc2n(c1=O)CCN2c1ccccc1 , report its viability at 24 h, 1 µM. 93

###

# test summary: Cytotoxicity against human LS180 cells at 50 ug/ml after 72 hrs
# Assay type: functional
# assay conditions: LS180, 72 h
outcome measure: inhibition at 50 µg/mL (%)
Please respond with the number in % and leave the unit unwritten.

Give its inhibition at 50 µg/mL value. Item: Cc1ccc(N2CCn3c2n[nH]c(=O)c3=N)cc1 45

# get_value(readout='inhibition at 50 µg/mL', item= Cc1ccc(N2CCn3c2n[nH]c(=O)c3=O)cc1 ) 0

Could you tell me which inhibition at 50 µg/mL is on file for COc1ccc(N2CCn3c2n[nH]c(=O)c3=O)cc1 ? 46

Please look up its inhibition at 50 µg/mL: N/N=C1\NCCN1c1ccccc1Cl 0

Returns the measured inhibition at 50 µg/mL for the input molecule. Input: COc1ccccc1N1CCn2c1n[nH]c(=O)c2=O 29

Can you share its inhibition at 50 µg/mL? I mean this molecule: COc1ccc(N2CCN/C2=N\N)cc1 9
